Study system: T1, recombinant human trimeric ARG2 enzyme (construct not given) (human, UniProt P78540 23-354)
T1 sequence (looked up): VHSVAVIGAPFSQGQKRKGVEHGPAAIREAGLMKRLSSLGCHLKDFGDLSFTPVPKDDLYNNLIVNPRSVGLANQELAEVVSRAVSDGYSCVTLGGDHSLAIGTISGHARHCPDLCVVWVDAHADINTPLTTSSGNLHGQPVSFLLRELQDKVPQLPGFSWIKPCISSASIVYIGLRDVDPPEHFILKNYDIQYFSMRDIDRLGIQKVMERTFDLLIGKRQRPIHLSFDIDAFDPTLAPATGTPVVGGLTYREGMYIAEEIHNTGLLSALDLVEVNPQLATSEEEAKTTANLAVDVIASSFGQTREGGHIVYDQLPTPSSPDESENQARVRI
Protocol description: cell-based or functional assay
Measured Trimeric human ARG2 EIA IC50 accompanies every entry in the list below.
State just the number; it will be interpreted in nM.

>  <Binder>
C0021017 scFv (scFv, V domains shown, scFv) VH: EVQLLESGGGLVQPGGSLRLSCAASGFTFYPEYELWVRQAPGKGLEWVSAISGSGGSTYYADSVKGRFTISRDNSKNTLYLQMNSLRAEDTAVYYCARLRADLGLYMDLWGRGTLVTVSS VL: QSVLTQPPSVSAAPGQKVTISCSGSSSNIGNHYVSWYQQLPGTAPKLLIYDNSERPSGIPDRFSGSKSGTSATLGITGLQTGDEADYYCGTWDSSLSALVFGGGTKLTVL

>  <Units text>
nM

>  <Trimeric human ARG2 EIA IC50>
226

$$$$
>  <Binder>
C0021139 scFv (scFv, V domains shown, scFv) VH: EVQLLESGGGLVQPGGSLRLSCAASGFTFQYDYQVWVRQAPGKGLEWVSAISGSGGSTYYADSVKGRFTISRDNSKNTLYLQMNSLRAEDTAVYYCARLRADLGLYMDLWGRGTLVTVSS VL: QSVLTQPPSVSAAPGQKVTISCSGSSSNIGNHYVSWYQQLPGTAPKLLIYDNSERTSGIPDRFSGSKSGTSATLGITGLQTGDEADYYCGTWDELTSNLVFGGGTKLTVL

>  <Units text>
nM

>  <Trimeric human ARG2 EIA IC50>
188

$$$$

Next, consider the following binder.
The recorded Trimeric human ARG2 EIA IC50 for C0021135 scFv (scFv, V domains shown, scFv) VH: EVQLLESGGGLVQPGGSLRLSCAASGFAFRYEYIQWVRQAPGKGLEWVSAISGSGGSTYYADSVKGRFTISRDNSKNTLYLQMNSLRAEDTAVYYCARLRADLGLYMDLWGRGTLVTVSS VL: QSVLTQPPSVSAAPGQKVTISCSGSSSNIGNHYVSWYQQLPGTAHKLLIYDNSERPSGIPDRFSGSKSGTSATLGITGLQTGDEADYYCGTWDSSLSALVFGGGTKLTVL is 220

Origin of the recorded values: patent US20220403048A1
